All values here come from patent US10392404B2.

Target: b-Raf (V600E) (Homo sapiens, UniProt P15056, V600E)
Construct: made in house
Sequence (P15056 whole entry V600E): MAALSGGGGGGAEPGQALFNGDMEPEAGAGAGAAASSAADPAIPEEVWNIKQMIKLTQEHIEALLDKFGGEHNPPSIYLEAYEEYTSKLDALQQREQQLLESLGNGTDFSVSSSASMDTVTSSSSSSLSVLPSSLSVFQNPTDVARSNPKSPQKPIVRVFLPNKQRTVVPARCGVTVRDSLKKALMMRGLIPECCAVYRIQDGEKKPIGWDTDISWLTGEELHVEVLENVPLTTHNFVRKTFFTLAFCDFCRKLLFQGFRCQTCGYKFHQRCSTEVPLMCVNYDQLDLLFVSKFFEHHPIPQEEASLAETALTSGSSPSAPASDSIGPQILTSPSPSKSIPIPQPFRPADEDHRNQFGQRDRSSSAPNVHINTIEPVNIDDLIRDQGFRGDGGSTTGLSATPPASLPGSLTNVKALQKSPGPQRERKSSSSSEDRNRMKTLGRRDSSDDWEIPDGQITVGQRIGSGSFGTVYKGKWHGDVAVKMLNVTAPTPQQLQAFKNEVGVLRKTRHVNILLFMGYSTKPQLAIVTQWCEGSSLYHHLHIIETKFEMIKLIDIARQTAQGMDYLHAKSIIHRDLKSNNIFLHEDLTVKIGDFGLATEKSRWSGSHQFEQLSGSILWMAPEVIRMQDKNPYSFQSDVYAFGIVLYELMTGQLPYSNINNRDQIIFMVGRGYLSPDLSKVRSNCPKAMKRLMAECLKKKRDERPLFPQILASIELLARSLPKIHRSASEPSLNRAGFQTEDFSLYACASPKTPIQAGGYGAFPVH
Test: In vitro Raf activity determination (Alpha Screen, biotinylated kinase-dead MEK1 substrate), B-Raf
Format: biochemical
Settings: b-Raf (V600E) approximately 4 pM; ATP 10 μM; pre-incubation 60 minutes; reaction 3 hours at room temperature
Readout: IC50 (nM)

Example entries and their recorded answers appear below.
| Molecule | Readout | Recorded Number |
| --- | --- | --- |
| Cc1ncc(NC(=O)c2cc(C(C)(C)F)ccn2)cc1-c1cnc(N2CC(C)(O)C2)c(C#N)c1 [Example 243] | IC50 | 9.83 |
| Cc1ccc(NC(=O)c2ccnc(C(C)(C)C#N)c2)cc1-c1cnc(C(C)C)c(C#N)c1 [Example 122] | IC50 | 2.8 |
| Cc1ncc(NC(=O)c2ccnc(C(F)(F)F)c2)cc1-c1cnc(OC2COC2)c(C#N)c1 [Example 95] | IC50 | 12.8 |
| CCC(F)(F)c1cc(C(=O)Nc2cnc(C)c(-c3cnc(N4CC(C)(O)C4)c(C#N)c3)c2)ccn1 [Example 192] | IC50 | 5.13 |
| Cc1ncc(NC(=O)c2ccnc(C3CC3)c2)cc1-c1cnc(N2CC(C)(O)C2)c(C#N)c1 [Example 188] | IC50 | 9.92 |
| Cc1ncc(NC(=O)c2ccnc(C(F)(F)F)c2)cc1-c1cnc(-c2cn(C)nc2C)c(C#N)c1 [Example 111] | IC50 | 1.46 |

I. Cc1ccc(NC(=O)c2cccc(C(F)(F)F)c2)cc1-c1cnc(NC(C)C)c(C#N)c1 [Example 18]
II. Cc1ncc(NC(=O)c2ccnc(C(F)(F)F)c2)cc1-c1cnc(N2CCOCC2)c(C#N)c1 [Example 68]
Sorting ascending by IC50, which comes first: I or II ? Write the label of whichever entry you select.
II

---

Target: C-RAF (Homo sapiens, UniProt P04049, Y340E/Y341E)
Construct: His tag (implied by nickel chromatography) (cleaved yes); StrepII tag (cleaved yes); MEK1 substrate from E. coli
Sequence (P04049 whole entry Y340E/Y341E): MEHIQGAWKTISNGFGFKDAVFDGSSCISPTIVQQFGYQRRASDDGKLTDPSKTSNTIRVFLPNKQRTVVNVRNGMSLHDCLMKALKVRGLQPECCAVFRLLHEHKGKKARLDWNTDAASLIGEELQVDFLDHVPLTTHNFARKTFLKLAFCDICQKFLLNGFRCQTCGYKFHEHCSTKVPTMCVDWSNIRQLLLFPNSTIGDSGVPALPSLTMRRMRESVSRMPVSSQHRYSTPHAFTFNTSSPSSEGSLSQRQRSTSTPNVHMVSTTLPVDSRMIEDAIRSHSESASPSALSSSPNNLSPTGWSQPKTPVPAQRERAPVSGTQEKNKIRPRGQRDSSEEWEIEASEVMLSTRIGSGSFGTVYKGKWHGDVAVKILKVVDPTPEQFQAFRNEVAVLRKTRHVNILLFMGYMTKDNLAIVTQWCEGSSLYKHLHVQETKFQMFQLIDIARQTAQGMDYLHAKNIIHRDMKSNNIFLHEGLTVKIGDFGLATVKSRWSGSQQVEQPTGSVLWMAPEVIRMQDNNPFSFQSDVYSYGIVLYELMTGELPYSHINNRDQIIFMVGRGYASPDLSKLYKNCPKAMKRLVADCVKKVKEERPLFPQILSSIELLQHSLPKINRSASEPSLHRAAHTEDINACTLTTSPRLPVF
Sequence (P63104 whole entry partner): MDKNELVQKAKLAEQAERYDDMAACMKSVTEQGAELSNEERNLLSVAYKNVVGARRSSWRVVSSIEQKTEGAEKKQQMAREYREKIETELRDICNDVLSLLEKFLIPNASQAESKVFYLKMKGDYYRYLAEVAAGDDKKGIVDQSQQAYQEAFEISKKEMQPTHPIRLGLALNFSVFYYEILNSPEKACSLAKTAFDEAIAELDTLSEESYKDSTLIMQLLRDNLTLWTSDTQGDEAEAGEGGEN
Experiment: In vitro Raf activity determination (Alpha Screen, biotinylated kinase-dead MEK1 substrate), C-Raf
Conditions: c-Raf approximately 4 nM; ATP 1 μM; pre-incubation 60 minutes; reaction 1 hour at room temperature
Readout: IC50 (nM)

P. COc1ncc(-c2cc(NC(=O)c3cccc(C(F)(F)F)c3)ccc2C)cc1C#N
Q. CCn1cc(C(=O)Nc2cnc(C)c(-c3cnc(N(C)C)c(C#N)c3)c2)c(C)n1
R. COCCNc1ncc(-c2cc(NC(=O)c3ccnc(C(C)(C)O)c3)cnc2C)cc1C#N
S. Cc1ncc(NC(=O)c2ccnc(C3CC3)c2)cc1-c1cnc(N2CCOCC2)c(C#N)c1
T. Cc1nn(C)cc1C(=O)Nc1cnc(C)c(-c2cnc(N(C)C)c(C#N)c2)c1
rank_up(items): orders items by reported IC50 in ascending numerical order. List each label, following the requested order.
P, S, R, Q, T
(P: 0.16 nM, S: 0.236 nM, R: 5.97 nM, Q: 55.3 nM, T: 148 nM)

---

Target: C-RAF (Homo sapiens, UniProt P04049, Y340E/Y341E)
Construct: His tag (implied by nickel chromatography) (cleaved yes); StrepII tag (cleaved yes); MEK1 substrate from E. coli
Assay: In vitro Raf activity determination (Alpha Screen, biotinylated kinase-dead MEK1 substrate), C-Raf
Conditions: c-Raf approximately 4 nM; ATP 1 μM; pre-incubation 60 minutes; reaction 1 hour at room temperature
Readout: IC50 (nM)

a. Cc1ncc(NC(=O)c2ccnc(C(C)(C)C#N)c2)cc1-c1cnc(-c2cn(C)nc2C)c(C#N)c1
b. Cc1ccc(NC(=O)c2ccnc(C(F)(F)F)c2)cc1-c1cnc(N(C)C)c(C#N)c1
c. Cc1ncc(NC(=O)c2ccnc(C(C)(C)C#N)c2)cc1-c1cnc(-n2ccccc2=O)c(C#N)c1
Sort ascending by IC50: all records listed above. Respond with an ordered listing of the labels, as requested.
b, a, c
(b: 0.127 nM, a: 1.79 nM, c: 64 nM)
